Target: aldose-reductase (Rattus norvegicus, UniProt P07943)
Construct: The surnatant, after centrifugation at 3000 x g for 15 minutes, has been used; from tissue; host or cells: crystalline lenses of adult male rats (homogenate supernatant)
Test: Aldose-reductase inhibitory activity (rat lens homogenate supernatant, method of Varma and Kinoshita)
Format: biochemical, rats
Description: Crystallin lenses of adult male rats have been homogenized in 0.1 M phosphate buffer pH 6.2. The surnatant, after centrifugation at 3000 x g for 15 minutes, has been used. The surnatant contained 13 mg/ml of proteins. Quercitrin (Fluka, Buchs) 1 mM dissolved in DMSO: H2O (1:10) has been used. The aldose-reductase activity has been tested by the method described by […] […]
reportedProperty: pKi
Expect pKi as a plain number equal to -log10 of the molar concentration.

Reported pKi, compound C[C@@H]1O[C@@H](Oc2c(-c3ccc(O)c(O)c3)oc3cc(O)cc(O)c3c2=O)[C@H](O)[C@H](O)[C@H]1O [quercitrin, reference compound] : ____
5.22
